measured.endpoint: melting point

Answered examples (2):
O=C(O)C(O)CSc1ccc(-c2ccccc2)cc1 (stereo not given) = 176 °C
Cc1ccc(-c2nn(-c3cccc(OC(F)(F)F)c3)c(N)c2C(N)=O)cc1 = 177 to 179 °C

Q: Sample Cc1cc(Cl)ccc1Br — what was its melting point?
Result: 91 to 95 °C

Q: Please do the same for Brc1ccc(C23CC4(c5ccc(Br)cc5)CC(c5ccc(Br)cc5)(C2)CC(c2ccc(Br)cc2)(C3)C4)cc1 as well.
Result: 354 °C

Q: Please do the same for CC(=O)Oc1ccc(CC2SC(=O)NC2=O)cc1 (stereo not given) as well.
Result: 115 to 117 °C
